Tested Target: T1, recombinant SARS-CoV-2 Spike RBD domain, XBB.1.5 variant (SARS-CoV-2)
T1 construct: also called RBD XBB.1.5 variant
Assay Procedure: competition ELISA, blocking of RBD binding to ACE2 ectodomain
The following binders are shown together with reported Blocking % values.
Give just the numeric value; % need not be written.

Binder	Blocking %, %
SPK002M A3 antibody (antibody, human IgG1, kappa, V domains shown) VH: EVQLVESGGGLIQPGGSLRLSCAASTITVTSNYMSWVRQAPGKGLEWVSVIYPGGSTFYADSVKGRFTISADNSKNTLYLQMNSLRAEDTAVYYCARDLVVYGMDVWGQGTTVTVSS VL: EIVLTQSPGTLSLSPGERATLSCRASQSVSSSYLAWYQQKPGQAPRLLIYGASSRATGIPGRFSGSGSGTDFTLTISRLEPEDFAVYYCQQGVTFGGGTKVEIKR	95

Now consider a different binder.
Using the record for SPK002M A4 antibody (antibody, human IgG1, kappa, V domains shown) VH: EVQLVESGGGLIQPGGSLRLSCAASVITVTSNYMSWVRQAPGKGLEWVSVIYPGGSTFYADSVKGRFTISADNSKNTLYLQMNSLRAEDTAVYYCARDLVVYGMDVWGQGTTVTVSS VL: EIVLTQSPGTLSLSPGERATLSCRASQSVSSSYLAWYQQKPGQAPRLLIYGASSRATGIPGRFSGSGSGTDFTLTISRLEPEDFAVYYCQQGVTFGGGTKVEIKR , report its Blocking %.
95
